System: clinical isolates of multidrug-resistant Klebsiella pneumoniae (and ATCC43816)
Experiment: MIC determination at Fidelta, clinical isolates
Assay type: cell-based
Details: Klebsiella pneumoniae, ATCC43816, KP-1944; Blood/NDM; read-out: MIC 90
Property name: MIC90 (µg/mL)
Answers are plain numbers, in µg/mL.

Check out these entries, answers already filled in.
N=C(NC[C@@H]1CCCN1)NC1[C@@H](O)C(OC2[C@@H](F)[C@H](O[C@H]3OC(CN)[C@@H](O)CC3N)C(N)C[C@H]2NC(=O)[C@@H](O)CCN)O[C@H](CO)[C@H]1O (some centres unmarked)	2
N=C(NC[C@@H]1CCNC1)NC1[C@@H](O)C(OC2[C@@H](F)[C@H](O[C@H]3OC(CN)[C@@H](O)CC3N)C(N)C[C@H]2NC(=O)[C@@H](O)CCN)O[C@H](CO)[C@H]1O (some centres unmarked)	2
N=C(N)NC1[C@@H](O)C(OC2[C@@H](F)[C@H](O[C@H]3OC(CN)[C@@H](O)[C@H](O)C3N)C(N)C[C@H]2NC(=O)[C@@H](O)CCN)O[C@H](CO)[C@H]1O (some centres unmarked)	1

Parameters: items (list). Returns: MIC90 for each item.
1. N=C(NCCN)NC1C(O)[C@@H](CO)OC(OC2C(F)[C@H](O[C@H]3OC(CN)[C@@H](O)CC3N)C(N)C[C@H]2NC(=O)[C@@H](O)CCN)[C@@H]1O (some centres unmarked)
2. N=C(N)NC1C(O)[C@@H](CO)OC(OC2C(F)[C@H](O[C@H]3OC(CN)[C@@H](O)CC3N)C(N)C[C@H]2NC(=O)[C@@H](O)CCN)[C@@H]1O (some centres unmarked)

stdout:
4
1
